Values from patent US10526336B2

- Test System: UniProt:O43614
- Protocol Description: FLIPR Ca2+ Flux Assay, orexin-2 receptor antagonism in CHO cells
- Protocol Conditions: CHO cells expressing the human orexin-2 receptor; agonist 70 pM Ala-6,12 orexin-A; read-out: hOX2 FLIPR IC50
I'd appreciate it if you could supply IC50 values for the items below.
Answers are plain numbers, in nM.

C[C@@H]1CC[C@@H](Oc2nccn3c(F)cnc23)CN1C(=O)c1ccccc1-n1nccn1: 12.6

Quick batch: IC50 for everything below.
1. CC(O)c1cnc2c(O[C@@H]3CC[C@@H](C)N(C(=O)c4ccccc4-n4nccn4)C3)nccn12 (stereo partly shown)
2. Cc1cn2ccnc(N[C@@H]3CC[C@@H](C)N(C(=O)c4ccccc4-n4nccn4)C3)c2n1
3. CCCc1ccccc1C(=O)N1C[C@H](Oc2nccn3ccnc23)CC[C@H]1C
4. C[C@@H]1CC[C@@H](Oc2nccn3c(C(F)(F)F)cnc23)CN1C(=O)c1ccccc1CS(C)(=O)=O
5. C[C@@H]1CC[C@@H](Oc2nccn3ccnc23)CN1C(=O)c1ccccc1CC(F)(F)F
6. C[C@@H]1CC[C@@H](Oc2nccn3cc(CO)nc23)CN1C(=O)c1ccccc1-n1nccn1
7. C[C@@H]1CC[C@@H](Oc2nccc3ncn(C)c23)CN1C(=O)c1ccccc1-n1nccn1

[out]
115
50.9
31.9
170
50.4
49.3
42.3

Quick batch: IC50 for everything below.
1. C[C@@H]1CC[C@@H](Oc2nccn3ccnc23)CN1C(=O)c1ccccc1-n1nccn1
2. C[C@@H]1CC[C@@H](Oc2cccn3c(=O)n(C)nc23)CN1C(=O)c1ccccc1-n1nccn1
3. Cc1cn2ccnc(O[C@@H]3CC[C@@H](C)N(C(=O)c4cccnc4-c4ccccc4)C3)c2n1
4. C[C@@H]1CC[C@@H](Oc2nccn3c(C(F)F)cnc23)CN1C(=O)c1ccccc1CS(C)(=O)=O
5. Cc1cn2ccnc(O[C@@H]3CC[C@@H](C)N(C(=O)c4cccnc4-n4cccn4)C3)c2n1
6. C[C@@H]1CC[C@@H](Oc2nccn3c(Br)cnc23)CN1C(=O)c1ccccc1-n1nccn1

[out]
[35.8, 178, 68.4, 62.6, 58.7, 8.9]

Quick batch: IC50 for everything below.
1. Cc1cn2ccnc(O[C@@H]3CC[C@@H](C)N(C(=O)c4cccnc4OCC(F)F)C3)c2n1
2. Cc1cn2ccnc(O[C@@H]3CC[C@@H](C)N(C(=O)c4ccccc4C4(C#N)CC4)C3)c2n1

[out]
41.7
13.2

* * *

- Test System: human orexin-2 receptor (Homo sapiens (Human))
- Sequence (O43614 whole entry): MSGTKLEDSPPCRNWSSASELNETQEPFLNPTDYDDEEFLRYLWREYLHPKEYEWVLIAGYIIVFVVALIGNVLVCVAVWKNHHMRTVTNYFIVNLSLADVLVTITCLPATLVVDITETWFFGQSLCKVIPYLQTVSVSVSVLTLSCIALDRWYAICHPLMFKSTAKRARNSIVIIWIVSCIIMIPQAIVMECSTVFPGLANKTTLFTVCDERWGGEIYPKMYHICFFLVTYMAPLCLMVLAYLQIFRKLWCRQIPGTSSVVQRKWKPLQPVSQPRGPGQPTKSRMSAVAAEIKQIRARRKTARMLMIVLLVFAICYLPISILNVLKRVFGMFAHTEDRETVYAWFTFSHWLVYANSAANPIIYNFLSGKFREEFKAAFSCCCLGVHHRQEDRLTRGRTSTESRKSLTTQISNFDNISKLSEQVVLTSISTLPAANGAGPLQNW
- Protocol Description: FLIPR Ca2+ Flux Assay, orexin-2 receptor antagonism in CHO cells
- Protocol Conditions: CHO cells expressing the human orexin-2 receptor; agonist 70 pM Ala-6,12 orexin-A; read-out: hOX2 FLIPR IC50
Parameter Measured: pIC50
Answers are plain numbers, as −log10 of the molar value.

Quick batch: pIC50 for everything below.
1. C[C@@H]1CC[C@@H](Oc2nccn3c(C(F)F)cnc23)CN1C(=O)c1nccnc1-c1ccccn1
2. C[C@@H]1CC[C@@H](Oc2nccn3c(C(F)F)cnc23)CN1C(=O)c1ccccc1-n1nccn1

[out]
1: 7.19; 2: 7.75

Quick batch: pIC50 for everything below.
1. C[C@@H]1CC[C@@H](Oc2cccn3nccc23)CN1C(=O)c1ccccc1-n1nccn1
2. C[C@@H]1CC[C@@H](Oc2nccn3nccc23)CN1C(=O)c1cscc1-n1nccn1
3. C[C@@H]1CC[C@@H](Oc2nccn3nccc23)CN1C(=O)c1ccsc1-c1ncccn1

[out]
[6.90, 7.80, 7.69]

Quick batch: pIC50 for everything below.
1. C[C@@H]1CC[C@@H](Oc2nccn3c(C(F)F)cnc23)CN1C(=O)c1cccnc1OCC(F)(F)F
2. COC(=O)c1ccccc1C(=O)N1C[C@H](Oc2ccnc3ocnc23)CC[C@H]1C
3. C[C@@H]1CC[C@@H](Oc2nccn3nccc23)CN1C(=O)c1ccsc1-n1nccn1
4. C[C@@H]1CC[C@@H](Oc2ccnc3ocnc23)CN1C(=O)c1ccccc1-n1nccn1
5. CC(C)Oc1ccccc1C(=O)N1C[C@H](Oc2nccn3nccc23)CC[C@H]1C
6. Cc1cn2ccnc(O[C@@H]3CC[C@@H](C)N(C(=O)c4cccnc4OCC(F)(F)F)C3)c2n1
7. C[C@@H]1CC[C@@H](Oc2nccn3c(C(F)F)cnc23)CN1C(=O)c1ccsc1-c1ncccn1

[out]
1. 7.58
2. 7.33
3. 8.01
4. 7.79
5. 7.36
6. 7.47
7. 7.27

Quick batch: pIC50 for everything below.
1. C[C@@H]1CC[C@@H](Oc2nccn3c(C(F)(F)F)cnc23)CN1C(=O)c1ccccc1-n1nccn1
2. Cc1cn2ccnc(O[C@@H]3CC[C@@H](C)N(C(=O)c4cscc4-n4nccn4)C3)c2n1
3. C[C@@H]1CC[C@@H](Oc2nccn3c(C(F)(F)F)cnc23)CN1C(=O)c1cccnc1-n1cccn1

[out]
1: 7.88; 2: 7.41; 3: 7.62

Quick batch: pIC50 for everything below.
1. C[C@@H]1CC[C@@H](Oc2nccn3nccc23)CN1C(=O)c1nccnc1-c1ccccn1
2. C[C@@H]1CC[C@@H](Nc2nccn3cc(C(F)(F)F)nc23)CN1C(=O)c1ccsc1-n1nccn1
3. C[C@@H]1CC[C@@H](Oc2nccn3cc(C#N)nc23)CN1C(=O)c1ccccc1-n1nccn1
4. C[C@@H]1CC[C@@H](Oc2ccnc3ocnc23)CN1C(=O)c1ccccc1-n1ncnn1
5. CCc1cnc2c(O[C@@H]3CC[C@@H](C)N(C(=O)c4ccccc4-n4nccn4)C3)nccn12
6. C[C@@H]1CC[C@@H](Oc2nccn3nccc23)CN1C(=O)c1cscc1-c1ncccn1
7. Cc1nc2ccnc(N[C@@H]3CC[C@@H](C)N(C(=O)c4ccccc4-n4nccn4)C3)n2n1

[out]
7.23
7.00
7.05
7.44
7.53
7.46
7.56

Quick batch: pIC50 for everything below.
1. C[C@@H]1CC[C@@H](Oc2nccn3c(Cl)cnc23)CN1C(=O)c1ccccc1-n1ncnn1
2. C[C@@H]1CC[C@@H](Sc2nccn3ccnc23)CN1C(=O)c1ccccc1-n1nccn1
3. C[C@@H]1CC[C@@H](Oc2nccn3c(C(F)F)cnc23)CN1C(=O)c1cccnc1-n1cccn1
4. C[C@@H]1CC[C@@H](Oc2nccn3c(Cl)cnc23)CN1C(=O)c1ccsc1-n1nccn1
5. C[C@@H]1CC[C@@H](Nc2nccn3nccc23)CN1C(=O)c1ccccc1-n1nccn1
6. C[C@@H]1CC[C@@H](Nc2nccn3c(Cl)cnc23)CN1C(=O)c1ccccc1-c1ncccn1
7. C[C@@H]1CC[C@@H](Oc2nccn3nccc23)CN1C(=O)c1ccccc1C1(C#N)CC1

[out]
1: 8.04; 2: 7.99; 3: 7.80; 4: 7.84; 5: 7.69; 6: 7.63; 7: 7.84

Quick batch: pIC50 for everything below.
1. C[C@@H]1CC[C@@H](Oc2nccn3c(C(F)(F)F)cnc23)CN1C(=O)c1cccnc1OCC(F)F
2. Cc1cn2ccnc(O[C@@H]3CC[C@@H](C)N(C(=O)c4ccccc4-n4ncnn4)C3)c2n1

[out]
7.76
7.65

* * *

- Test System: UniProtKB O43614
- Protocol Description: FLIPR Ca2+ Flux Assay, orexin-2 receptor antagonism in CHO cells
- Protocol Conditions: CHO cells expressing the human orexin-2 receptor; agonist 70 pM Ala-6,12 orexin-A; read-out: hOX2 FLIPR IC50
Lab note - cut at 50 nM for IC50: class 1 if strictly below, class 0 if not.

Consider the following illustrative entries.
C[C@@H]1CC[C@@H](Nc2nccn3cc(C(F)(F)F)nc23)CN1C(=O)c1ccccc1-n1nccn1: class 1
C[C@@H]1CC[C@@H](Oc2nccn3c(C(F)F)cnc23)CN1C(=O)c1ncccc1-c1ccccc1: class 0
C[C@@H]1CC[C@@H](Oc2nccn3c(C(F)(F)F)cnc23)CN1C(=O)c1cccnc1OCC(F)(F)F: class 1

[in] Hi there! Is IC50 for C[C@@H]1CC[C@@H](Oc2nccn3cc(C(F)(F)F)nc23)CN1C(=O)c1ccccc1-n1nccn1 below 50 nM, do you know?
[out] class 0

[in] Hi there! Is IC50 for C[C@@H]1CC[C@@H](Oc2nccn3nccc23)CN1C(=O)c1ccc(F)cc1-n1nccn1 below 50 nM, do you know?
[out] class 1

[in] Hi there! Is IC50 for Cc1cnc2c(O[C@@H]3CC[C@@H](C)N(C(=O)c4ccccc4-n4nccn4)C3)nccn12 below 50 nM, do you know?
[out] class 1

[in] Hi there! Is IC50 for C[C@@H]1CC[C@@H](Oc2nccn3c(C(F)(F)F)cnc23)CN1C(=O)c1ncccc1-c1ccccc1 below 50 nM, do you know?
[out] class 1

[in] Hi there! Is IC50 for C[C@@H]1CC[C@@H](Oc2nccc3c2cnn3C)CN1C(=O)c1ccccc1-n1nccn1 below 50 nM, do you know?
[out] class 1

* * *

- Test System: human orexin-2 receptor (Homo sapiens (Human))
- Protocol Description: FLIPR Ca2+ Flux Assay, orexin-2 receptor antagonism in CHO cells
- Protocol Conditions: CHO cells expressing the human orexin-2 receptor; agonist 70 pM Ala-6,12 orexin-A; read-out: hOX2 FLIPR IC50
Parameter Measured: IC50

Here is how some compounds turned out for IC50.
C[C@@H]1CC[C@@H](Oc2nccn3c(C(F)F)cnc23)CN1C(=O)c1ccccc1-c1ncccn1: 24.1 nM
C[C@@H]1CC[C@@H](Nc2nccc3c2ncn3C)CN1C(=O)c1ccccc1-n1nccn1: 38.5 nM
Cc1cn2ccnc(O[C@@H]3CC[C@@H](C)N(C(=O)c4ccsc4-n4nccn4)C3)c2n1: 27.4 nM
CCOc1ccccc1C(=O)N1C[C@H](Oc2nccn3nccc23)CC[C@H]1C: 51.9 nM
C[C@@H]1CC[C@@H](Nc2nccc3nn(C)cc23)CN1C(=O)c1ccccc1-n1nccn1: 124 nM
C[C@@H]1CC[C@@H](Oc2nccn3c(C(F)F)cnc23)CN1C(=O)c1ccsc1-n1nccn1: 10.5 nM
CCOc1ccccc1C(=O)N1C[C@H](Oc2ccnc3ocnc23)CC[C@H]1C: 24.4 nM
Cc1nc2ccnc(O[C@@H]3CC[C@@H](C)N(C(=O)c4ccccc4-n4nccn4)C3)n2n1: 60 nM

Quick batch: IC50 for everything below.
1. C[C@@H]1CC[C@@H](Oc2nccc3c2ncn3C)CN1C(=O)c1ccccc1-n1nccn1
2. C[C@@H]1CC[C@@H](Nc2nccn3c(Cl)cnc23)CN1C(=O)c1ccccc1-n1nccn1

[out]
1: 28.8 nM; 2: 13.9 nM

Quick batch: IC50 for everything below.
1. C[C@@H]1CC[C@@H](Oc2nccn3c(C(F)(F)F)cnc23)CN1C(=O)c1ccccc1-c1ncccn1
2. C[C@@H]1CC[C@@H](Oc2nccn3nccc23)CN1C(=O)c1ccccc1-n1ncnn1
3. C[C@@H]1CC[C@@H](Oc2nccn3c(C(F)(F)F)cnc23)CN1C(=O)c1ccccc1-n1ncnn1

[out]
["14.9 nM", "27.8 nM", "19 nM"]
